- System: COG-LL-317
- measurement_notes: selective drug sensitivity score (sDSS, relative to normal bone marrow) (sDSS (score)); higher = more potent and effective on the cell line relative to normal bone marrow cells;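 also: ALL cell lines in 384-well plates, five doses spanning 10,000-fold, each plate scaled between vehicle and 100 µmol/L benzalkonium chloride controls, sDSS an adapted area-under-curve metric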
- particulars: 72 h
Entries and their measured selective drug sensitivity score follow.

molecule: Cc1c(N)nc([C@H](CC(N)=O)NC[C@H](N)C(N)=O)nc1C(=O)N[C@H](C(=O)N[C@H](C)[C@@H](O)[C@H](C)C(=O)N[C@H](C(=O)NCCc1nc(-c2nc(C(=O)NCCC[S+](C)C)cs2)cs1)[C@@H](C)O)[C@@H](O[C@@H]1O[C@@H](CO)[C@@H](O)[C@H](O)[C@@H]1O[C@H]1O[C@H](CO)[C@@H](O)[C@H](OC(N)=O)[C@@H]1O)c1c[nH]cn1 [Bleomycin] (top concentration 10000 nM)
selective drug sensitivity score: 5.14
--
molecule: COc1cc(OC)cc(N(CCNC(C)C)c2ccc3ncc(-c4cnn(C)c4)nc3c2)c1 [Erdafitinib] (top concentration 1000 nM)
selective drug sensitivity score: -0.56
--
molecule: Cc1cc(Nc2cc(CN3CCOCC3)c3nc(C)c(Cc4ccc(Cl)cc4F)n3n2)n[nH]1 [Gandotinib] (top concentration 10000 nM)
selective drug sensitivity score: 8.68
--
molecule: C=CCn1c(=O)c2cnc(Nc3ccc(N4CCN(C)CC4)cc3)nc2n1-c1cccc(C(C)(C)O)n1 [AZD1775] (top concentration 10000 nM)
selective drug sensitivity score: 20.5

====

- System: COG-LL-394h
- measurement_notes: selective drug sensitivity score (sDSS, relative to normal bone marrow) (sDSS (score)); higher = more potent and effective on the cell line relative to normal bone marrow cells
- particulars: 72 h
Class (required): determined from selective drug sensitivity score; valid ranges are lo: < -0.3; med: ≥ -0.3 and < 1; hi: ≥ 1

compound: COc1cc(OC2CCN(C)CC2)ccc1Nc1ncc2c(n1)n(C1CCCC1)c(=O)n2C [AZ3146] (top concentration 10000 nM)
subject_of_test: COG-LL-394h
assigned_category: hi
//
compound: CC#CC(=O)N1CC[C@@H](n2c(=O)n(-c3ccc(Oc4ccccc4)cc3)c3c(N)ncnc32)C1 [Tirabrutinib] (top concentration 1000 nM)
subject_of_test: COG-LL-394h
assigned_category: med
//
compound: CC(C)(C)c1cc(NC(=O)Nc2ccc(-c3cn4c(n3)sc3cc(OCCN5CCOCC5)ccc34)cc2)no1 [Quizartinib] (top concentration 1000 nM)
subject_of_test: COG-LL-394h
assigned_category: lo
//
compound: CCCS(=O)(=O)Nc1ccc(F)c(C(=O)c2c[nH]c3ncc(-c4ccc(Cl)cc4)cc23)c1F [Vemurafenib] (top concentration 10000 nM)
subject_of_test: COG-LL-394h
assigned_category: lo
//
compound: CS(=O)(=O)c1ccc(-c2cnc(N)c(C(=O)Nc3ccccc3)n2)cc1 [VE-821] (top concentration 10000 nM)
subject_of_test: COG-LL-394h
assigned_category: lo
//
compound: CCC/C=C/C=C/C(=O)O[C@H]1/C(=C/C(=O)OC)C[C@H]2C[C@H]([C@@H](C)O)OC(=O)C[C@H](O)C[C@@H]3C[C@H](OC(C)=O)C(C)(C)[C@](O)(C[C@@H]4C/C(=C/C(=O)OC)C[C@H](/C=C/C(C)(C)[C@]1(O)O2)O4)O3 [Bryostatin_1] (top concentration 100 nM)
subject_of_test: COG-LL-394h
assigned_category: lo
//
compound: Cc1ccc(C(=O)Nc2ccc(CN3CCN(C)CC3)c(C(F)(F)F)c2)cc1C#Cc1cnc2cccnn12 [Ponatinib] (top concentration 1000 nM)
subject_of_test: COG-LL-394h
assigned_category: hi
//
compound: Cc1ccc(=O)n(-c2ccccc2)c1 [Pirfenidone] (top concentration 10000 nM)
subject_of_test: COG-LL-394h
assigned_category: med
//
compound: Clc1ccc(Nc2nnc(Cc3ccncc3)c3ccccc23)cc1 [Vatalanib] (top concentration 10000 nM)
subject_of_test: COG-LL-394h
assigned_category: med
//
compound: CC[C@@H]1C(=O)N(C)c2cnc(Nc3ccc(C(=O)N[C@H]4CC[C@H](N5CCN(CC6CC6)CC5)CC4)cc3OC)nc2N1C(C)C [Volasertib] (top concentration 1000 nM)
subject_of_test: COG-LL-394h
assigned_category: hi
//
compound: C[C@@H](C(=O)O)c1ccc(-c2ccccc2)c(F)c1 [Tarenflurbil] (top concentration 10000 nM)
subject_of_test: COG-LL-394h
assigned_category: med
//
compound: CC(=O)N(O)CCCCCNC(=O)CCC(=O)N(O)CCCCCNC(=O)CCC(=O)N(O)CCCCCN [Deferoxamine] (top concentration 10000 nM)
subject_of_test: COG-LL-394h
assigned_category: med
//
compound: CCN(CC)CCCC(C)Nc1c2ccc(Cl)cc2nc2ccc(OC)cc12 (centres undefined) [Mepacrine] (top concentration 50000 nM)
subject_of_test: COG-LL-394h
assigned_category: lo
//
compound: CC(C)C[C@H](NC(=O)[C@H](CCc1ccccc1)NC(=O)CN1CCOCC1)C(=O)N[C@@H](Cc1ccccc1)C(=O)N[C@@H](CC(C)C)C(=O)[C@@]1(C)CO1 [Carfilzomib] (top concentration 1000 nM)
subject_of_test: COG-LL-394h
assigned_category: med
//
compound: Cc1cc(Nc2cc(N3CCN(C)CC3)nc(/C=C/c3ccccc3)n2)n[nH]1 [ENMD-2076] (top concentration 10000 nM)
subject_of_test: COG-LL-394h
assigned_category: hi
//
compound: CNC(=O)c1ccc(N2C(=S)N(c3ccc(C#N)c(C(F)(F)F)c3)C(=O)C2(C)C)cc1F [Enzalutamide] (top concentration 10000 nM)
subject_of_test: COG-LL-394h
assigned_category: lo
//
compound: N#Cc1ccc(C(c2ccc(C#N)cc2)n2cncn2)cc1 [Letrozole] (top concentration 10000 nM)
subject_of_test: COG-LL-394h
assigned_category: med
//
compound: Cc1cccc(CC(=O)N2CCc3c2ccc(-c2cn(C)c4ncnc(N)c24)c3F)n1 (top concentration 2500 nM)
subject_of_test: COG-LL-394h
assigned_category: hi
//
compound: CN1CCN(c2ccc3nc(-c4c(N)c5c(F)cccc5[nH]c4=O)[nH]c3c2)CC1 [Dovitinib] (top concentration 10000 nM)
subject_of_test: COG-LL-394h
assigned_category: hi
//
compound: O=C(O)c1ccc(-c2c[nH]c3ncc(-c4ccccc4)cc23)cc1C1CCCC1 (top concentration 10000 nM)
subject_of_test: COG-LL-394h
assigned_category: lo
//
compound: COc1cc2nccc(Oc3ccc(NC(=O)C4(C(=O)Nc5ccc(F)cc5)CC4)cc3)c2cc1OC [Cabozantinib] (top concentration 1000 nM)
subject_of_test: COG-LL-394h
assigned_category: med
//
compound: COc1nc(N)nc2c1ncn2[C@@H]1O[C@H](CO)[C@@H](O)[C@@H]1O [Nelarabine] (top concentration 10000 nM)
subject_of_test: COG-LL-394h
assigned_category: lo
//
compound: S=C(NCc1ccc2c(c1)OCO2)N1CCN(c2ncnc3c2oc2ccccc23)CC1 [Amuvatinib] (top concentration 10000 nM)
subject_of_test: COG-LL-394h
assigned_category: hi

====

- Tested on: MHH-CALL-3
- measurement_notes: selective drug sensitivity score (sDSS, relative to normal bone marrow) (sDSS (score)); higher = more potent and effective on the cell line relative to normal bone marrow cells
- particulars: 72 h
Entries and their measured selective drug sensitivity score follow.

compound: O=C(Nc1ccc(OC(F)(F)Cl)cc1)c1cnc(N2CC[C@@H](O)C2)c(-c2cc[nH]n2)c1 [Asciminib] (top concentration 1000 nM)
selective drug sensitivity score: -0.98

compound: COC(=O)C[C@](O)(CCCC(C)(C)O)C(=O)O[C@@H]1C(OC)=C[C@]23CCCN2CCc2cc4c(cc2[C@H]13)OCO4 [Omacetaxine] (top concentration 10000 nM)
selective drug sensitivity score: 15.6

compound: Cn1cc(C2=C(c3cn(C4CCN(Cc5ccccn5)CC4)c4ccccc34)C(=O)NC2=O)c2ccccc21 [Enzastaurin] (top concentration 10000 nM)
selective drug sensitivity score: 3.86

compound: CC(C)C[C@H](NC(=O)[C@H](CCc1ccccc1)NC(=O)CN1CCOCC1)C(=O)N[C@@H](Cc1ccccc1)C(=O)N[C@@H](CC(C)C)C(=O)[C@@]1(C)CO1 [Carfilzomib] (top concentration 1000 nM)
selective drug sensitivity score: 2.86

compound: COc1ccc(-c2nc(N3CCOCC3)c3sc(CN(C)c4ncc(C(=O)NO)cn4)cc3n2)cn1 [Fimepinostat (CUDC-907)] (top concentration 10000 nM)
selective drug sensitivity score: 10.9

compound: NC(=O)NO [Hydroxyurea] (top concentration 1000000 nM)
selective drug sensitivity score: -4.44

compound: CC[C@]1(O)C[C@H]2CN(CCc3c([nH]c4ccccc34)[C@@](C(=O)OC)(c3cc4c(cc3OC)N(C=O)[C@H]3[C@@](O)(C(=O)OC)[C@H](OC(C)=O)[C@]5(CC)C=CCN6CC[C@]43[C@@H]65)C2)C1 [Vincristine] (top concentration 1000 nM)
selective drug sensitivity score: 4.22

compound: C[C@@H](C(=O)O)c1ccc(-c2ccccc2)c(F)c1 [Tarenflurbil] (top concentration 10000 nM)
selective drug sensitivity score: -0.16

compound: CNC(=O)c1ccc(N2C(=S)N(c3ccc(C#N)c(C(F)(F)F)c3)C(=O)C2(C)C)cc1F [Enzalutamide] (top concentration 10000 nM)
selective drug sensitivity score: -0.82

compound: N#Cc1ccc(C(c2ccc(C#N)cc2)n2cncn2)cc1 [Letrozole] (top concentration 10000 nM)
selective drug sensitivity score: -0.04

compound: C[C@@H]1CN(Cc2ccc(F)cc2)[C@@H](C)CN1C(=O)c1cc2c(C(=O)C(=O)N(C)C)cn(C)c2cc1Cl [Talmapimod] (top concentration 10000 nM)
selective drug sensitivity score: 0
